# Tested on: NCI-H460
# Method Summary: MTT assay, NCI-H460 cells
# Type: cell-based, human
# Test Parameters: Homo sapiens, NCI-H460; MTT, 48 h; mean ± SD from five independent experiments
Readout Kind: pIC50
One number for each entry, as −log10 of the molar value.

Endpoint output: pIC50 of COc1cc2ccnc3c2c(c1OC)-c1ccccc1C3=O . Value?
4.72
